Target: Acrosin (Homo sapiens, UniProt P10323)
Sequence (P10323 20-42 limits assumed): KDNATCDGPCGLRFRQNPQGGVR
Sequence (P10323 43-343 limits assumed): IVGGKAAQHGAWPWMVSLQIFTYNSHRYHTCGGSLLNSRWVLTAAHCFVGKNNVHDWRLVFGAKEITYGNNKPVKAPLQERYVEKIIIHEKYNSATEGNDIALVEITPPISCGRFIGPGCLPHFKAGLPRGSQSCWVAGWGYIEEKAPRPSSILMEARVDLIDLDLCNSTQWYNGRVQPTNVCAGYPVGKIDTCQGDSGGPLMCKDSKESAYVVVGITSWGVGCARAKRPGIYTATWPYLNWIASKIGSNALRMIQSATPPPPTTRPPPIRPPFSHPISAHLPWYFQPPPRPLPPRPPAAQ
Please respond with true (1) when measured IC50 is strictly beneath 4 mM, and with false (0) in all other cases.

q: Strictly below 4 mM: is that where IC50 of N=C(N)NS(=O)(=O)c1ccc(NC(=O)COc2ccccc2)cc1 sits?
a: true (1)

q: Strictly below 4 mM: is that where IC50 of CCC(=O)Nc1ccc(S(=O)(=O)N=C(N)N)cc1 sits?
a: false (0)

q: Strictly below 4 mM: is that where IC50 of NC(N)=NS(=O)(=O)c1ccc(NC(=O)c2cc([N+](=O)[O-])cc([N+](=O)[O-])c2)cc1 sits?
a: true (1)

Continuing:
q: Strictly below 4 mM: is that where IC50 of CCc1ccc(C(=O)Nc2ccc(S(=O)(=O)N=C(N)N)cc2)cc1 sits?
a: true (1)

q: Strictly below 4 mM: is that where IC50 of N=C(N)NS(=O)(=O)c1ccc(NC(=O)c2c(F)cccc2F)cc1 sits?
a: false (0)

q: Strictly below 4 mM: is that where IC50 of N=C(N)NS(=O)(=O)c1ccc(NC(=O)c2ccc(CCl)cc2)cc1 sits?
a: true (1)
